Each recorded value in this set is attributed to paper PMC4822987.

Dear all, this message contains IC50 results, target or system Leishmania mexicana arginase (LmARG) (Leishmania mexicana).
quantityMeasured: IC50

N[C@@](CCCCB(O)O)(C(=O)O)C1CCN(Cc2ccc(Cl)c(Cl)c2)CC1 (racemic)
1.7 µM
N[C@](CCCCB(O)O)(CCN1CCCCC1)C(=O)O
2.1 µM
N[C@@H](CCCCB(O)O)C(=O)O [ABH, 2-(S)-amino-6-boronohexanoic acid, reference compound]
1.3 µM
